Biological target: UniProt P03372
Sequence (P03372 whole entry): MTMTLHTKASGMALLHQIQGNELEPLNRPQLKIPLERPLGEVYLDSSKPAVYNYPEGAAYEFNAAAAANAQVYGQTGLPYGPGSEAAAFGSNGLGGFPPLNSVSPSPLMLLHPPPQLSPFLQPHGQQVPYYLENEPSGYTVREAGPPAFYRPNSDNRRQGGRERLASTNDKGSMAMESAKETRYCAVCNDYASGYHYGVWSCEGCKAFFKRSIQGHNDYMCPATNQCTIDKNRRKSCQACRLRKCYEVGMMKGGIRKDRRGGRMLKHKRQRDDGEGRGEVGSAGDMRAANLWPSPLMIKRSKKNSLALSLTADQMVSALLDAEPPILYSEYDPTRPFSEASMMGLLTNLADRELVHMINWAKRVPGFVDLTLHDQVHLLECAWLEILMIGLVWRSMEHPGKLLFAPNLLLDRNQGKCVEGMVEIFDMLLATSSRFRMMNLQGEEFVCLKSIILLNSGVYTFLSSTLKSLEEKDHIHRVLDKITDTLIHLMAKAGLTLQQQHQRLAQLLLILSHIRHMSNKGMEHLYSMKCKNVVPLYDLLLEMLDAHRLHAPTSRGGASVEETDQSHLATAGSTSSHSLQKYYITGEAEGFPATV
Test: In-cell western (ICW) ER degradation assay in MCF-7 cells
Type: cell-based
Conditions: ER degradation, MCF7, 16 hrs
property_name: DC50

Some solved cases for reference:
O=C1CC[C@@H](N2Cc3c(ccc4c3OC[C@@H]3CN(CC5COC6(CCN(c7ccc([C@@H]8c9ccc(O)cc9OC[C@@H]8c8ccccc8)cc7F)CC6)C5)CCN43)C2=O)C(=O)N1 (single isomer, unassigned) [Compound A158] : < 1 nM
COc1cc(N2CCC(CN3CCN(c4ccc(C(=O)NC5CCC(=O)NC5=O)nc4)CC3)CC2)ccc1[C@H]1c2ccc(O)cc2OC[C@H]1c1ccccc1 (single isomer, unassigned) [Compound A124] : < 1 nM

Next compound, DC50 to be filled in.
# DC50 (compound: O=C1CCC(N2C(=O)c3cc4c(cc3C2=O)CN(CC(=O)N2CCC3(CC2)CN(c2ccc([C@H]5c6ccc(O)cc6OC[C@H]5c5ccccc5)cc2)C3)C4)C(=O)N1 (single isomer, unassigned) [Compound A38] ) is 10 to 100 nM
